Measurement target: α-glucosidase (Saccharomyces cerevisiae)
Construct: purchased Merck
Assay remarks: biochemical
Measurement context: pNPG substrate, pH 6.8, 37 °C; read-out: IC50 α-Glucosidase
Observation type: IC50 (µM)
One number for each entry, in µM.

Reference set, count: 3
Clc1ccc(Cn2cc(CSc3nnc(COc4cccc5cccnc45)o3)nn2)cc1 [12d] | 38.1
CCCSc1nnc(COc2cccc3cccnc23)o1 | 24.9
COc1ccc(-n2cc(CSc3nnc(COc4cccc5cccnc45)o3)nn2)cc1 [12q] | 62.1

Here are 7 compounds. What values of IC50 were reported for them?
1. Clc1ccc(CSc2nnc(COc3cccc4cccnc34)o2)c(Cl)c1
2. c1ccc(-n2cc(CSc3nnc(COc4cccc5cccnc45)o3)nn2)cc1 [12k]
3. CCSc1nnc(COc2cccc3cccnc23)o1
4. Clc1ccc(CSc2nnc(COc3cccc4cccnc34)o2)cc1
5. Fc1ccc(CSc2nnc(COc3cccc4cccnc34)o2)c(F)c1
6. Clc1cccc(Cn2cc(CSc3nnc(COc4cccc5cccnc45)o3)nn2)c1 [12h]
7. CCCCCCSc1nnc(COc2cccc3cccnc23)o1

[27.7, 22.5, 41.6, 25.2, 28.2, 63.6, 48.1]

----------
Assay remarks: DPPH radical scavenging activity
Measurement context: DPPH radical scavenging, 30 min, 25 °C
Label criterion met when IC50 < 80 µM; otherwise criterion not met.

Solved cases below.
Fc1cccc(CSc2nnc(COc3cccc4cccnc34)o2)c1 | criterion met
Clc1cccc(Cn2cc(CSc3nnc(COc4cccc5cccnc45)o3)nn2)c1 [12h] | criterion not met
Cc1cccc(C)c1-n1cc(CSc2nnc(COc3cccc4cccnc34)o2)nn1 [12t] | criterion not met
Cc1ccc(-n2cc(CSc3nnc(COc4cccc5cccnc45)o3)nn2)cc1 [12p] | criterion not met

Decide: IC50 of Clc1cccc(Cl)c1-n1cc(CSc2nnc(COc3cccc4cccnc34)o2)nn1 [12s] strictly below 80 µM? criterion not met

API: query returns whether the compound falls strictly under 80 µM in IC50. Query: "O=[N+]([O-])c1ccc(CSc2nnc(COc3cccc4cccnc34)o2)cc1" criterion met

Quick check: IC50 of "CCSc1nnc(COc2cccc3cccnc23)o1" under 80 µM? criterion met

Report whether reported IC50 is lower than 80 µM (strictly) for "BrCCCCCSc1nnc(COc2cccc3cccnc23)o1" criterion met

hey, is IC50 for "C=CCSc1nnc(COc2cccc3cccnc23)o1" lower than 80 µM or not? criterion met

----------
Please respond with reported pIC50 for every item in the list.
Measurement target: α-glucosidase (Saccharomyces cerevisiae, UniProt P38158)
Construct: purchased Merck
Sequence (P38158 whole entry): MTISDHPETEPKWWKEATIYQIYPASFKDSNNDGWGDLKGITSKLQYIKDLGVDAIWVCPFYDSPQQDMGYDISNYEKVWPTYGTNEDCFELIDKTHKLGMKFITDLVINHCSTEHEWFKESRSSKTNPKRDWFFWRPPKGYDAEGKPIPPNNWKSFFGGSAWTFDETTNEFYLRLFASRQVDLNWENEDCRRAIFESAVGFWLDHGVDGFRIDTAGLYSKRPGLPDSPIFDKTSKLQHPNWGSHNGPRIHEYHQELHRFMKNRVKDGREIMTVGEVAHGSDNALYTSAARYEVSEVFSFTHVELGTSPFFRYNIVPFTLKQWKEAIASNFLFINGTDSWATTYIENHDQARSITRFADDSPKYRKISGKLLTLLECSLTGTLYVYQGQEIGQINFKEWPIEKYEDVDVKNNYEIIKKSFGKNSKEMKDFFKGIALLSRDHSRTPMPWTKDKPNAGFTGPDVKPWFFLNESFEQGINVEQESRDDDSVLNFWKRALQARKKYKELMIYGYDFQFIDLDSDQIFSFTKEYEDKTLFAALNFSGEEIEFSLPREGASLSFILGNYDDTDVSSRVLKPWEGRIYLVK
Assay remarks: biochemical
Measurement context: pNPG substrate, pH 6.8, 37 °C; read-out: IC50 α-Glucosidase
Give bare numbers, as −log10 of the molar value.

Clc1ccc(-n2cc(CSc3nnc(COc4cccc5cccnc45)o3)nn2)c(Cl)c1 [12r] | 4.31
Cc1ccc(-n2cc(CSc3nnc(COc4cccc5cccnc45)o3)nn2)cc1 [12p] | 4.36
Brc1cccc(CSc2nnc(COc3cccc4cccnc34)o2)c1 | 4.53
Sc1nnc(COc2cccc3cccnc23)o1 | 4.46
Clc1cccc(Cl)c1-n1cc(CSc2nnc(COc3cccc4cccnc34)o2)nn1 [12s] | 4.41

Please state, for each entry, its recorded pIC50.
1. Fc1ccc(Cn2cc(CSc3nnc(COc4cccc5cccnc45)o3)nn2)cc1 [12e]
2. C=CCSc1nnc(COc2cccc3cccnc23)o1
3. Clc1cccc(CSc2nnc(COc3cccc4cccnc34)o2)c1

4.41
4.46
4.53

----------
Assay remarks: DPPH radical scavenging activity
Measurement context: DPPH radical scavenging, 30 min, 25 °C
Task for the reader: assign each of the following compounds its reported pIC50.
Give bare numbers, as −log10 of the molar value.

A selection of reference data follows.
Clc1ccc(-n2cc(CSc3nnc(COc4cccc5cccnc45)o3)nn2)cc1 [12l] | 4.09
c1ccc(Cn2cc(CSc3nnc(COc4cccc5cccnc45)o3)nn2)cc1 [12c] | 4.10

// returns reported pIC50 for input CCCCSc1nnc(COc2cccc3cccnc23)o1 [4c] 4.10
